# credit: the supplement of paper PMC9262897

Parameter growth: see the listing below.
system: E. coli TESEC Mtb Alr; experiment: growth (OD600 after 10 h); higher = more growth (less inhibition); conditions: arabinose 10000000 nM; compound 0.1 mM; raw OD600 reference: median of DMSO wells […], cell-free background 0.052
Structures can show the parent of a compound that is named as a salt.

MOLECULE: S=C(NC1CCCCC1)N1CCC(c2cnc[nH]2)CC1 [Thioperamide maleate]
growth: 0.299
--
MOLECULE: O=P1(NCCCl)OCCCN1CCCl (stereo not drawn) [Ifosfamide]
growth: 0.359

Attention now turns to another entry.
Respond only with growth recorded for C(#CCN1CCCC1)CN1CCCC1 [Tremorine dihydrochloride]
0.375

###

test system: E. coli TESEC Mtb Alr; assay: growth (OD600 after 10 h); higher = more growth (less inhibition); conditions: arabinose 10000 nM; compound 0.1 mM; raw OD600 reference: median of DMSO wells 0.264, cell-free background 0.041
OBSERVATION TYPE: growth
Keep the answer to the number alone.

Before answering, review these 4 worked examples.
COMPOUND: CN1C[C@H](CNC(=O)OCc2ccccc2)C[C@@H]2c3cccc4c3c(cn4C)C[C@H]21
MEASURED NUMBER: 0.0402
//
COMPOUND: C=CC[C@]1(O)CC[C@H]2[C@@H]3CCC4=CC(=O)CCC4=C3C=C[C@@]21C
MEASURED NUMBER: 0.167
//
COMPOUND: CC[N+]1(C)CCCC(OC(=O)C(O)(c2ccccc2)c2ccccc2)C1 (stereo not drawn) [Pipenzolate bromide]
MEASURED NUMBER: 0.258
//
COMPOUND: COc1ccc(C(=O)N2CCCC2=O)cc1
MEASURED NUMBER: 0.246

Tell me growth of CN1C(=O)CCS(=O)(=O)C1c1ccc(Cl)cc1 (stereo not drawn) when tested on E. coli TESEC Mtb Alr.
0.256

Tell me growth of C[C@]12Cc3c[nH]nc3C[C@@H]1CC[C@@H]1[C@@H]2CC[C@@]2(C)[C@H]1CC[C@]2(C)O when tested on E. coli TESEC Mtb Alr.
0.245

Tell me growth of O=[N+]([O-])O[C@@H]1CO[C@H]2[C@@H]1OC[C@@H]2O [Isosorbide mononitrate] when tested on E. coli TESEC Mtb Alr.
0.261

Tell me growth of O=[N+]([O-])O[C@H]1CO[C@H]2[C@@H]1OC[C@H]2O[N+](=O)[O-] [Isosorbide dinitrate] when tested on E. coli TESEC Mtb Alr.
0.263

###

tested on: E. coli TESEC Mtb Alr; test: growth (OD600 after 10 h); higher = more growth (less inhibition); settings: arabinose 100 nM; compound 0.1 mM; raw OD600 reference: median of DMSO wells 0.413, cell-free background 0.052
Structures can show the parent of a compound that is named as a salt.
OBSERVATION TYPE: growth
Keep the answer to the number alone.

Before answering, review these 2 worked examples.
COMPOUND: COc1ccc(Cc2nccc3cc(OC)c(OC)cc23)cc1OC [Papaverine hydrochloride]
growth: 0.397
--
COMPOUND: CN1[C@@H]2CC[C@H]1C[C@@H](OC(=O)[C@H](CO)c1ccccc1)C2
growth: 0.415

Respond only with growth recorded for CC[C@@H](CO)NC(=O)[C@@H]1C=C2c3cccc4[nH]cc(c34)C[C@H]2N(C)C1 [Methylergometrine maleate]
0.4

Respond only with growth recorded for CN1[C@@H]2C[C@@H](OC(=O)[C@H](CO)c3ccccc3)C[C@H]1[C@@H]1O[C@@H]12 [Scopolamine hydrochloride]
0.408

###

tested on: E. coli TESEC Alr+ wild-type control; test: growth (OD600 after 10 h); higher = more growth (less inhibition); settings: compound 0.1 mM; raw OD600 reference: median of DMSO wells 0.241, cell-free background 0.041
Where a name gives a salt, the structure may show the parent alone.
OBSERVATION TYPE: growth
Keep the answer to the number alone.

Respond only with growth recorded for Cc1cccc(C)c1NC1=NCCCS1
0.236

Respond only with growth recorded for Oc1cc(Cl)ccc1Oc1ccc(Cl)cc1Cl
0.0414

Respond only with growth recorded for CN1C[C@H](CNC(=O)OCc2ccccc2)C[C@@H]2c3cccc4c3c(cn4C)C[C@H]21
0.0409

Respond only with growth recorded for NCC(O)c1ccc(O)cc1 (racemic) [(+,-)-Octopamine hydrochloride]
0.258

Respond only with growth recorded for CN(C)[C@@H]1C(=O)C(C(N)=O)=C(O)[C@@]2(O)C(=O)C3=C(O)c4c(O)cccc4[C@@](C)(O)[C@H]3[C@H](O)[C@@H]12 [Oxytetracycline dihydrate]
0.0451

Respond only with growth recorded for O=c1[nH]c2ccccc2n1CCCN1CCC(n2c(=O)[nH]c3cc(Cl)ccc32)CC1
0.129

Respond only with growth recorded for C[C@]12CC[C@@H]3c4ccc(OC(=O)N(CCCl)CCCl)cc4CC[C@H]3[C@@H]1CC[C@@H]2O
0.248

###

Parameter growth: see the listing below.
tested on: E. coli TESEC Mtb Alr; assay: growth (OD600 after 10 h); higher = more growth (less inhibition); conditions: arabinose 10000000 nM; compound 0.1 mM; raw OD600 reference: median of DMSO wells […], cell-free background 0.052
Structures can show the parent of a compound that is named as a salt.
Keep the answer to the number alone.

Respond only with growth recorded for COc1ccc(CCN2CCC(Nc3nc4ccccc4n3Cc3ccc(F)cc3)CC2)cc1
0.0525

Respond only with growth recorded for CC[C@@H](C(N)=O)N1CCCC1=O
0.364

Respond only with growth recorded for CC[N+]1(C)CCCC(OC(=O)C(O)(c2ccccc2)c2ccccc2)C1 (centres undefined) [Pipenzolate bromide]
0.348

Respond only with growth recorded for COc1ccc(Cc2nccc3cc(OC)c(OC)cc23)cc1OC [Papaverine hydrochloride]
0.22

Respond only with growth recorded for C=CCN1CC[C@]23c4c5ccc(O)c4O[C@H]2C(=O)CC[C@@]3(O)[C@H]1C5 [Naloxone hydrochloride]
0.317

Respond only with growth recorded for COc1cc2c(c(OC)c1OC)-c1ccc(OC)c(=O)cc1[C@@H](NC(C)=O)CC2
0.322

Respond only with growth recorded for C[C@@H]1C[C@@H]([C@H](O)CC2CC(=O)NC(=O)C2)C(=O)[C@@H](C)C1 [Cycloheximide]
0.33

Respond only with growth recorded for CC(C)(C)NCC(O)c1ccccc1Cl (centres undefined)
0.341

Respond only with growth recorded for COP(=O)(OC)C(O)C(Cl)(Cl)Cl (centres undefined)
0.257

###

test system: E. coli TESEC Mtb Alr; assay: growth (OD600 after 10 h); higher = more growth (less inhibition); conditions: arabinose 100 nM; compound 0.1 mM; raw OD600 reference: median of DMSO wells 0.413, cell-free background 0.052
Where a name gives a salt, the structure may show the parent alone.
Rule: growth of 0.4 or more gives y; anything lower gives n.

Known results for compounds:
COMPOUND: C[C@]12CC[C@@H](O)C[C@H]1CC[C@@H]1[C@@H]2CC[C@]2(C)C(=O)CC[C@@H]12 [3-alpha-Hydroxy-5-beta-androstan-17-one]
ASSIGNED CATEGORY: n

COMPOUND: CCn1cc(C(=O)O)c(=O)c2cc3c(cc21)OCO3
ASSIGNED CATEGORY: n

COMPOUND: O=[N+]([O-])O[C@@H]1CO[C@H]2[C@@H]1OC[C@@H]2O [Isosorbide mononitrate]
ASSIGNED CATEGORY: y

COMPOUND: CC(=O)[C@H]1CC[C@H]2[C@@H]3CC[C@H]4C[C@H](O)CC[C@]4(C)[C@H]3C(=O)C[C@]12C
ASSIGNED CATEGORY: n

COMPOUND: CN[C@@H]1[C@@H](O)[C@@H](O[C@@H]2[C@@H](O)[C@H](O[C@H]3O[C@H](CN)CC[C@H]3N)[C@@H](N)C[C@H]2N)OC[C@]1(C)O.CN[C@@H]1[C@@H](O)[C@@H](O[C@@H]2[C@@H](O)[C@H](O[C@H]3O[C@H]([C@@H](C)N)CC[C@H]3N)[C@@H](N)C[C@H]2N)OC[C@]1(C)O.CN[C@@H]1[C@@H](O)[C@@H](O[C@@H]2[C@@H](O)[C@H](O[C@H]3O[C@H]([C@@H](C)NC)CC[C@H]3N)[C@@H](N)C[C@H]2N)OC[C@]1(C)O [Gentamicine sulfate]
ASSIGNED CATEGORY: n

Decide: is the reported value of growth for COc1ccc(C(CN(C)C)C2(O)CCCCC2)cc1 (centres undefined) equal to or greater than 0.4?
y

Decide: is the reported value of growth for O=C(O)CCCc1ccc(N(CCCl)CCCl)cc1 equal to or greater than 0.4?
y

Decide: is the reported value of growth for CN1CCC2(C)c3cc(O)ccc3N(C)C12 (single isomer, unassigned; (-)) [(-)-Eseroline fumarate salt] equal to or greater than 0.4?
y
